- measurement-description: Clinical pharmacokinetics
- Type: in vivo, human
- measurement-setup: human, plasma; steady-state, post-dose
quantity-name: Tmax

Briefly, Tmax measured for Cn1c(COc2cc(C(F)(F)F)ccn2)nnc1[C@H]1CC[C@H](c2cnn([C@H]3CC[C@H](N4CC5(CCO5)C4)CC3)c2)CC1 : 2 to 3 h

###

- measurement-description: Pharmacokinetics in celiac disease patients, Part C
- Type: in vivo, human
- measurement-setup: human, in vivo; Day 8, mean, IMU-856 80 mg
quantity-name: Tmax at 192 h (h)
Use h as the unit, but write only the number.

Briefly, Tmax at 192 h measured for Cn1c(COc2cc(C(F)(F)F)ccn2)nnc1[C@H]1CC[C@H](c2cnn([C@H]3CC[C@H](N4CC5(CCO5)C4)CC3)c2)CC1 : 1.9

###

- measurement-description: Clinical pharmacokinetics
- Assay type: in vivo, human
- measurement-setup: human, plasma; steady-state
quantity-name: half-life

Briefly, half-life measured for Cn1c(COc2cc(C(F)(F)F)ccn2)nnc1[C@H]1CC[C@H](c2cnn([C@H]3CC[C@H](N4CC5(CCO5)C4)CC3)c2)CC1 [IMU-856] : 17.4 to 21.5 h

###

- measurement-description: Pharmacokinetics in celiac disease patients, Part C
- Assay type: in vivo, human
- measurement-setup: human, in vivo; Day 8, mean, IMU-856 80 mg; read-out: AUC0-t last
quantity-name: AUC(0-t) at 192 h (ng·h/mL)
Use ng·h/mL as the unit, but write only the number.

Briefly, AUC(0-t) at 192 h measured for Cn1c(COc2cc(C(F)(F)F)ccn2)nnc1[C@H]1CC[C@H](c2cnn([C@H]3CC[C@H](N4CC5(CCO5)C4)CC3)c2)CC1 : 1570
